Target: the molecule itself
Test: not stated; purified lamin 300 fragments in solution; how the dimeric state was found is not told
I'd be grateful if you could share measured stoichiometry N for these entries.
Lab note: jot the number down without any unit.

Incoming: Looking for the measured stoichiometry N of His-tagged lamin A/C 1-300 fragment, wild type (domain or fragment, human, UniProt P02545 1-300, looked up, lamin A/C, human, residues 1-300 (N-terminal head, coil 1a, L1, coil 1b and following residues); pProEx-HTa vector: a TEV protease cleavage site stands between the His-tag and the lamin residues; also called lamin 300 fragment; His-lamin 1-300 WT; source: E. coli BL21 (DE3), purified (cobalt-Talon, HiTrap Q, SEC); not shown: His-tag, N-terminal, kept) METPSQRRATRSGAQASSTPLSPTRITRLQEKEDLQELNDRLAVYIDRVRSLETENAGLRLRITESEEVVSREVSGIKAAYEAELGDARKTLDSVAKERARLQLELSKVREEFKELKARNTKKEGDLIAAQARLKDLEALLNSKEAALSTALSEKRTLEGELHDLRGQVAKLEAALGEAKKQLQDEMLRRVDAENRLQTMKEELDFQKNIYSEELRETKRRHETRLVEIDNGKQREFESRLADALQELRAQHEDQVEQYKKELEKTYSAKLDNARQSAERNSNLVGAAHEELQQSRIRID , can you help?
Outgoing: 2

Incoming: Now this one: His-tagged lamin A/C 1-300 fragment, L59R (domain or fragment, human, UniProt P02545 1-300, looked up, lamin A/C, human, residues 1-300 with the CDM1A mutation L59R; pProEx-HTa vector: a TEV protease cleavage site stands between the His-tag and the lamin residues; also called His-lamin 1-300 L59R; lamin 300 L59R; source: E. coli BL21 (DE3), purified (cobalt-Talon, HiTrap Q, SEC); not shown: His-tag, N-terminal, kept) METPSQRRATRSGAQASSTPLSPTRITRLQEKEDLQELNDRLAVYIDRVRSLETENAGRRLRITESEEVVSREVSGIKAAYEAELGDARKTLDSVAKERARLQLELSKVREEFKELKARNTKKEGDLIAAQARLKDLEALLNSKEAALSTALSEKRTLEGELHDLRGQVAKLEAALGEAKKQLQDEMLRRVDAENRLQTMKEELDFQKNIYSEELRETKRRHETRLVEIDNGKQREFESRLADALQELRAQHEDQVEQYKKELEKTYSAKLDNARQSAERNSNLVGAAHEELQQSRIRID
Outgoing: 2

Incoming: What would you report for His-tagged lamin A/C 1-300 fragment, I63S (domain or fragment, human, UniProt P02545 1-300, looked up, lamin A/C, human, residues 1-300 with the EDMD mutation I63S; pProEx-HTa vector: a TEV protease cleavage site stands between the His-tag and the lamin residues; also called His-lamin 1-300 I63S; lamin 300 I63S; source: E. coli BL21 (DE3), purified (cobalt-Talon, HiTrap Q, SEC); not shown: His-tag, N-terminal, kept) METPSQRRATRSGAQASSTPLSPTRITRLQEKEDLQELNDRLAVYIDRVRSLETENAGLRLRSTESEEVVSREVSGIKAAYEAELGDARKTLDSVAKERARLQLELSKVREEFKELKARNTKKEGDLIAAQARLKDLEALLNSKEAALSTALSEKRTLEGELHDLRGQVAKLEAALGEAKKQLQDEMLRRVDAENRLQTMKEELDFQKNIYSEELRETKRRHETRLVEIDNGKQREFESRLADALQELRAQHEDQVEQYKKELEKTYSAKLDNARQSAERNSNLVGAAHEELQQSRIRID ?
Outgoing: 2

Incoming: Also check His-tagged lamin A/C 1-300 fragment, L35V (domain or fragment, human, UniProt P02545 1-300, looked up, lamin A/C, human, residues 1-300 with the EDMD mutation L35V; pProEx-HTa vector: a TEV protease cleavage site stands between the His-tag and the lamin residues; also called His-lamin 1-300 L35V; lamin 300 L35V; source: E. coli BL21 (DE3), purified (cobalt-Talon, HiTrap Q, SEC); not shown: His-tag, N-terminal, kept) METPSQRRATRSGAQASSTPLSPTRITRLQEKEDVQELNDRLAVYIDRVRSLETENAGLRLRITESEEVVSREVSGIKAAYEAELGDARKTLDSVAKERARLQLELSKVREEFKELKARNTKKEGDLIAAQARLKDLEALLNSKEAALSTALSEKRTLEGELHDLRGQVAKLEAALGEAKKQLQDEMLRRVDAENRLQTMKEELDFQKNIYSEELRETKRRHETRLVEIDNGKQREFESRLADALQELRAQHEDQVEQYKKELEKTYSAKLDNARQSAERNSNLVGAAHEELQQSRIRID
Outgoing: 2

Incoming: And for His-tagged lamin A/C 1-300 fragment, Y45C (domain or fragment, human, UniProt P02545 1-300, looked up, lamin A/C, human, residues 1-300 with the EDMD mutation Y45C; pProEx-HTa vector: a TEV protease cleavage site stands between the His-tag and the lamin residues; also called His-lamin 1-300 Y45C; lamin 300 Y45C; source: E. coli BL21 (DE3), purified (cobalt-Talon, HiTrap Q, SEC); not shown: His-tag, N-terminal, kept) METPSQRRATRSGAQASSTPLSPTRITRLQEKEDLQELNDRLAVCIDRVRSLETENAGLRLRITESEEVVSREVSGIKAAYEAELGDARKTLDSVAKERARLQLELSKVREEFKELKARNTKKEGDLIAAQARLKDLEALLNSKEAALSTALSEKRTLEGELHDLRGQVAKLEAALGEAKKQLQDEMLRRVDAENRLQTMKEELDFQKNIYSEELRETKRRHETRLVEIDNGKQREFESRLADALQELRAQHEDQVEQYKKELEKTYSAKLDNARQSAERNSNLVGAAHEELQQSRIRID ?
Outgoing: 2
